Test: Immunization of mice with the peptides: body weight
Type: in vivo
Settings: mice immunized with FCA emulsion, 3 animals per group
recordedEndpoint: Body weight (Average g)
Response body: numeric value in g, unit text excluded.

substance: Peptide 2: synthetic peptide, epitope of the 41 kD fimbrial subunit protein of Porphyomonas gingivalis; sequence in Table 1, not shown (EVKALTTELT)
Body weight (Average g): 26
//
substance: Peptide 8: synthetic peptide, epitope of the 41 kD fimbrial subunit protein of Porphyomonas gingivalis; sequence in Table 1, not shown (ANGGTIHPTI)
Body weight (Average g): 25
//
substance: Peptide 1: synthetic peptide, epitope of the 41 kD fimbrial subunit protein of Porphyomonas gingivalis; sequence in Table 1, not shown (ENATKVEDIK)
Body weight (Average g): 25
//
substance: Peptide 5: synthetic peptide, epitope of the 41 kD fimbrial subunit protein of Porphyomonas gingivalis; sequence in Table 1, not shown (TGSLTTFNGA)
Body weight (Average g): 28
//
substance: Peptide 7: synthetic peptide, epitope of the 41 kD fimbrial subunit protein of Porphyomonas gingivalis; sequence in Table 1, not shown (GFYVLENDYS)
Body weight (Average g): 23
//
substance: Peptide 3: synthetic peptide, epitope of the 41 kD fimbrial subunit protein of Porphyomonas gingivalis; sequence in Table 1, not shown (AENQEAAGLI)
Body weight (Average g): 26
//
substance: Peptide 4: synthetic peptide, epitope of the 41 kD fimbrial subunit protein of Porphyomonas gingivalis; sequence in Table 1, not shown (AAGLIMTAEP)
Body weight (Average g): 27
//
substance: Peptide 6: synthetic peptide, epitope of the 41 kD fimbrial subunit protein of Porphyomonas gingivalis; sequence in Table 1, not shown (TFNGAYTPAN)
Body weight (Average g): 26

We now examine a further substance.
Task: Specify Body weight (Average g) for Peptide 9: synthetic peptide, epitope of the 41 kD fimbrial subunit protein of Porphyomonas gingivalis; sequence in Table 1, not shown (EGKTYYPVLV) and stop.
Result: 26

* * *

System: fimbrial protein of Porphyomonas gingivalis
Assay: Immunization of mice with the peptides: antibody titer in serum or saliva by ELISA
Format: in vivo
Settings: A405 value by the ELISA method, with FCA, 4 weeks later
recordedEndpoint: Antibody titer Saliva (1/500) Before absorption
// return just the number, without any unit appended

Examples with answers:
substance: Peptide 9: synthetic peptide, epitope of the 41 kD fimbrial subunit protein of Porphyomonas gingivalis; sequence in Table 1, not shown (EGKTYYPVLV)
measurement: 0.34
//
substance: Peptide 3: synthetic peptide, epitope of the 41 kD fimbrial subunit protein of Porphyomonas gingivalis; sequence in Table 1, not shown (AENQEAAGLI)
measurement: 0.37
//
substance: Peptide 4: synthetic peptide, epitope of the 41 kD fimbrial subunit protein of Porphyomonas gingivalis; sequence in Table 1, not shown (AAGLIMTAEP)
measurement: 0.49

We now examine a further substance.
Task: Specify Antibody titer Saliva (1/500) Before absorption for Peptide 1: synthetic peptide, epitope of the 41 kD fimbrial subunit protein of Porphyomonas gingivalis; sequence in Table 1, not shown (ENATKVEDIK) and stop.
Result: 0.61

* * *

Antibody titer Saliva (1/500) Before absorption values by entry
Tested on: fimbrial protein of Porphyomonas gingivalis
Assay: Immunization of mice with the peptides: antibody titer in serum or saliva by ELISA
Assay type: in vivo
Details: A405 value by the ELISA method, with FCA, 4 weeks later
// return just the number, without any unit appended

Examples with answers:
substance: Peptide 5: synthetic peptide, epitope of the 41 kD fimbrial subunit protein of Porphyomonas gingivalis; sequence in Table 1, not shown (TGSLTTFNGA)
assaySystem: fimbrial protein of Porphyomonas gingivalis
measurement: 0.42

substance: Peptide 6: synthetic peptide, epitope of the 41 kD fimbrial subunit protein of Porphyomonas gingivalis; sequence in Table 1, not shown (TFNGAYTPAN)
assaySystem: fimbrial protein of Porphyomonas gingivalis
measurement: 0.39

Task: Specify Antibody titer Saliva (1/500) Before absorption for Peptide 7: synthetic peptide, epitope of the 41 kD fimbrial subunit protein of Porphyomonas gingivalis; sequence in Table 1, not shown (GFYVLENDYS) and stop.
Result: 0.69

Task: Specify Antibody titer Saliva (1/500) Before absorption for Peptide 2: synthetic peptide, epitope of the 41 kD fimbrial subunit protein of Porphyomonas gingivalis; sequence in Table 1, not shown (EVKALTTELT) and stop.
Result: 0.36

Task: Specify Antibody titer Saliva (1/500) Before absorption for Peptide 8: synthetic peptide, epitope of the 41 kD fimbrial subunit protein of Porphyomonas gingivalis; sequence in Table 1, not shown (ANGGTIHPTI) and stop.
Result: 0.45
